Origin of the recorded values: patent US20220056104A1

Target: T1, DcR3 (UniProt O95407 30-300, limits assumed)
T1 construct: the construct is not described; also called decoy receptor DcR3; TNFRSF6B
T1 sequence (looked up): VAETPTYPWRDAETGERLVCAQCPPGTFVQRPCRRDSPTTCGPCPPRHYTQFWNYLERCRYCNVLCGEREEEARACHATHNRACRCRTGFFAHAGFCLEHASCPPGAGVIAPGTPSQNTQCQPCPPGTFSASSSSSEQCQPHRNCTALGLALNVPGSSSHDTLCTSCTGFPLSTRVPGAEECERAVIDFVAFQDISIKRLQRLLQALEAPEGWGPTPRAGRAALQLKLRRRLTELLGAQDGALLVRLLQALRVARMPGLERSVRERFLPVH
Experiment: ELISA, DcR3
Reported pEC50 values follow for various binders
Please report pEC50 as the negative decimal logarithm of the molar concentration, giving only the number.

TL1W118 (His-TEV-TL1A S206A) (ligand, also called TL1W118 (S206A)) HHHHHHENLYFQGLKGQEFAPSHQQVYAPLRADGDKPRAHLTVVRQTPTQHFKNQFPALHWEHELGLAFTKNRMNYTNKFLLIPESGDYFIYSQVTFRGMTSECSEIRQAGRPNKPDSITVVITKVTDSYPEPTQLLMGTKSVCEVGANWFQPIYLGAMFSLQEGDKLMVNVSDISLVDYTKEDKTFFGAFLL :: 8.06

Now for the binder whose pEC50 we want.
Inquiry: For the binder shown here, TL1W28 (His-TEV-hTL1A 72-251 E190G) (ligand, also called TL1W28 (E190G)) HHHHHHENLYFQGLKGQEFAPSHQQVYAPLRADGDKPRAHLTVVRQTPTQHFKNQFPALHWEHELGLAFTKNRMNYTNKFLLIPESGDYFIYSQVTFRGMTSECSEIRQAGRPNKPDSITVVITKVTDSYPGPTQLLMGTKSVCEVGSNWFQPIYLGAMFSLQEGDKLMVNVSDISLVDYTKEDKTFFGAFLL , give the reported pEC50.
Reply text: 8.24
